# Test system: OR10A6 (Homo sapiens, UniProt Q8NH74, L287P)
# Construct: full coding region from human genomic DNA in pFN210A, N-terminal IL-6-HaloTag; HEK-293 with RTP1S, G-alpha-olf, G-gamma-13, GloSensor-22F
# Sequence (Q8NH74 1-314 L287P): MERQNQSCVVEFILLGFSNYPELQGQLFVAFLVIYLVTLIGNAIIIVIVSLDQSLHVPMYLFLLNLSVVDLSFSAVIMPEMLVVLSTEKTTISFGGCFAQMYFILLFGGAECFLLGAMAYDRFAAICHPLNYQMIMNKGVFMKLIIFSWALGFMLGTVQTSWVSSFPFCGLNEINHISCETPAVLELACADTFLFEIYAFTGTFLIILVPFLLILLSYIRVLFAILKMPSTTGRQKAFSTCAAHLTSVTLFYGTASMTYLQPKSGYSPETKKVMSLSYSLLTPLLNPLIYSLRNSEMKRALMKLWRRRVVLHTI
# Test details: GloSensor cAMP luminescence, HEK-293
# Type: cell-based
# Measurement context: read-out: Z4-9Al
pEC50: −log10 of the molar value.

| Molecule | Test system | pEC50 |
| --- | --- | --- |
| CCCC/C=C\CCC=O [Z4-9Al, (Z)-4-nonenal] | OR10A6 (Homo sapiens, UniProt Q8NH74, L287P) | 4.39 |

###

# Test system: OR2W1 (Homo sapiens, UniProt Q9Y3N9, M81V)
# Construct: full coding region from human genomic DNA in pFN210A, N-terminal IL-6-HaloTag; HEK-293 with RTP1S, G-alpha-olf, G-gamma-13, GloSensor-22F
# Test details: GloSensor cAMP luminescence, HEK-293
# Assay type: cell-based
# Measurement context: read-out: Z4-9Al

| Compound | Readout unit | EC50 |
| --- | --- | --- |
| CCCC/C=C\CCC=O [Z4-9Al, (Z)-4-nonenal] | µM | 142 |

###

# Test system: OR10A6 (Homo sapiens, UniProt Q8NH74, A117V/L287P/V140G)
# Construct: full coding region from human genomic DNA in pFN210A, N-terminal IL-6-HaloTag; HEK-293 with RTP1S, G-alpha-olf, G-gamma-13, GloSensor-22F
# Sequence (Q8NH74 1-314 A117V/V140G/L287P): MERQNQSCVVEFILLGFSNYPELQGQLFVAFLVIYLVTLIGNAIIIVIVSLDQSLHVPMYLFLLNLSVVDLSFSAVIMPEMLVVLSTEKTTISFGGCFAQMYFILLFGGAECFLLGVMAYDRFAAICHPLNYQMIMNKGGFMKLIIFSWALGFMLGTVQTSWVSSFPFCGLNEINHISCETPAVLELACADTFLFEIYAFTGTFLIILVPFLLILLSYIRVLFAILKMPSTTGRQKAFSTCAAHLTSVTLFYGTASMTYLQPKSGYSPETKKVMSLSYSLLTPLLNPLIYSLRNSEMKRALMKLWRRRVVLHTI
# Test details: GloSensor cAMP luminescence, HEK-293
pEC50: −log10 of the molar value.

| Compound | pEC50 |
| --- | --- |
| CCCC/C=C\CCCCC=O [Z6-11Al, (Z)-6-undecenal] | < 3.00 |
| CCCCCC/C=C\CCC=O [Z4-11Al, (Z)-4-undecenal] | < 3.00 |
| CCCC/C=C\CCC=O [Z4-9Al, (Z)-4-nonenal] | < 3.00 |

###

# Test system: OR2W1 (Homo sapiens, UniProt Q9Y3N9, D296N)
# Construct: full coding region from human genomic DNA in pFN210A, N-terminal IL-6-HaloTag; HEK-293 with RTP1S, G-alpha-olf, G-gamma-13, GloSensor-22F
# Test details: GloSensor cAMP luminescence, HEK-293
# Type: cell-based
# Measurement context: read-out: Z6-11Al

| Molecule | Test system | EC50 [µM] |
| --- | --- | --- |
| CCCC/C=C\CCCCC=O [Z6-11Al, (Z)-6-undecenal] | OR2W1 (Homo sapiens, UniProt Q9Y3N9, D296N) | 138 |

###

# Test system: OR2W1 (Homo sapiens, UniProt Q9Y3N9, M81V)
# Construct: full coding region from human genomic DNA in pFN210A, N-terminal IL-6-HaloTag; HEK-293 with RTP1S, G-alpha-olf, G-gamma-13, GloSensor-22F
# Sequence (Q9Y3N9 1-320 M81V): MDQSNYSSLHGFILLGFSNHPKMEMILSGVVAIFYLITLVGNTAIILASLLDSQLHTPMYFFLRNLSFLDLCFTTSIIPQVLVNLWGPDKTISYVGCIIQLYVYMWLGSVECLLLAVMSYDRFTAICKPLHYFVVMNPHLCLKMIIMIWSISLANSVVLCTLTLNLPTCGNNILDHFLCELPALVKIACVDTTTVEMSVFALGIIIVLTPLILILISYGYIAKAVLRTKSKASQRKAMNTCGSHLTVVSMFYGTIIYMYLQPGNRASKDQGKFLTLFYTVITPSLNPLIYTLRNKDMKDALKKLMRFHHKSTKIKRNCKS
# Test details: GloSensor cAMP luminescence, HEK-293
# Assay type: cell-based
# Measurement context: read-out: EC50
pEC50: −log10 of the molar value.
Measured attribute: pEC50

| Molecule | Result |
| --- | --- |
| CCCCCC/C=C\CCC=O [Z4-11Al, (Z)-4-undecenal] | < 3.00 |
| CCCC/C=C\CCCCC=O [Z6-11Al, (Z)-6-undecenal] | < 3.00 |

###

# Test system: OR2W1 (Homo sapiens, UniProt Q9Y3N9)
# Construct: full coding region from human genomic DNA in pFN210A, N-terminal IL-6-HaloTag; HEK-293 with RTP1S, G-alpha-olf, G-gamma-13, GloSensor-22F
# Test details: GloSensor cAMP luminescence, HEK-293
# Assay type: cell-based
# Measurement context: read-out: Z6-11Al
Measured attribute: EC50 (µM)

| Compound | Readout unit | Measured number |
| --- | --- | --- |
| CCCC/C=C\CCCCC=O [Z6-11Al, (Z)-6-undecenal] | µM | 104 |

###

# Test system: OR10A6 (Homo sapiens, UniProt Q8NH74, L287P)
# Construct: full coding region from human genomic DNA in pFN210A, N-terminal IL-6-HaloTag; HEK-293 with RTP1S, G-alpha-olf, G-gamma-13, GloSensor-22F
# Test details: GloSensor cAMP luminescence, HEK-293
# Format: cell-based
# Measurement context: read-out: Z6-11Al
pEC50: −log10 of the molar value.
Measured attribute: pEC50

| Compound | Measured attribute | Measured number |
| --- | --- | --- |
| CCCC/C=C\CCCCC=O [Z6-11Al, (Z)-6-undecenal] | pEC50 | 4.46 |
